experiment: In vitro skin diffusion study, vertical Franz diffusion cell, HPLC-ESI-MS of markers; type: in vitro ADME, pig; details: donor: transdermal patch of Example 4.2; pig skin, 37° C., 24 hours; receiving medium 0.9% NaCl
Overview of reported percentage by weight of marker in the receiving cell, Transdermal Patch (Test Sample) across a group of compounds:
State just the number; it will be interpreted in wt %.

Reference set, count: 3
compound: CC(C)=CCC[C@](C)(O[C@@H]1O[C@H](CO)[C@@H](O)[C@H](O)[C@H]1O)[C@H]1CC[C@]2(C)[C@@H]1[C@H](O)C[C@@H]1[C@@]3(C)CC[C@H](O)C(C)(C)[C@@H]3[C@@H](O[C@@H]3O[C@H](CO)[C@@H](O)[C@H](O)[C@H]3O)C[C@]12C [Rg1, Ginsenoside Rg1]
reported.value: 16.3635
--
compound: O=C(O)c1cc(O)c2c(c1)C(=O)c1cccc(O)c1C2=O
reported.value: 4.8924
--
compound: CC1(C)CC[C@]2(C(=O)O[C@@H]3O[C@H](CO[C@@H]4O[C@H](CO)[C@@H](O)[C@H](O)[C@H]4O)[C@@H](O)[C@H](O)[C@H]3O)CC[C@]3(C)C(=CC[C@@H]4[C@@]5(C)CC[C@H](O[C@@H]6OC[C@H](O)[C@H](O)[C@H]6O)[C@@](C)(CO)[C@@H]5CC[C@]43C)[C@@H]2C1
reported.value: 4.4904

The compound identified as CC(C)=CCC[C@](C)(O[C@@H]1O[C@H](CO[C@@H]2O[C@H](CO)[C@@H](O)[C@H](O)[C@H]2O)[C@@H](O)[C@H](O)[C@H]1O)[C@H]1CC[C@]2(C)[C@@H]1[C@H](O)C[C@@H]1[C@@]3(C)CC[C@H](O[C@@H]4O[C@H](CO)[C@@H](O)[C@H](O)[C@H]4O[C@@H]4O[C@H](CO)[C@@H](O)[C@H](O)[C@H]4O)C(C)(C)[C@@H]3CC[C@]12C [Rb1, Ginsenoside Rb1] registered its percentage by weight of marker in the receiving cell, Transdermal Patch (Test Sample) at 7.8820

====

assay: In vitro skin diffusion study, vertical Franz diffusion cell, HPLC-ESI-MS of markers; assay type: in vitro ADME, pig; details: donor: herbal paste of Example 1; pig skin, 37° C., 24 hours; receiving medium 0.9% NaCl
quantity.name: percentage by weight of marker in the receiving cell, Herbal Paste (Control)

compound: O=c1c(O)c(-c2ccc(O)cc2)oc2cc(O)cc(O)c12
reported.value: 6.5294 wt %

compound: O=C(O)c1cc(O)c2c(c1)C(=O)c1cccc(O)c1C2=O
reported.value: 0.2299 wt %

compound: CC1(C)CC[C@]2(C(=O)O[C@@H]3O[C@H](CO[C@@H]4O[C@H](CO)[C@@H](O)[C@H](O)[C@H]4O)[C@@H](O)[C@H](O)[C@H]3O)CC[C@]3(C)C(=CC[C@@H]4[C@@]5(C)CC[C@H](O[C@@H]6OC[C@H](O)[C@H](O)[C@H]6O)[C@@](C)(CO)[C@@H]5CC[C@]43C)[C@@H]2C1
reported.value: 0.1375 wt %

compound: CC1(C)CC[C@]2(C(=O)O)CC[C@]3(C)C(=CC[C@@H]4[C@@]5(C)CC[C@H](O)C(C)(C)[C@@H]5CC[C@]43C)[C@@H]2C1
reported.value: 0.0000 wt %

compound: CC(C)=CCC[C@](C)(O[C@@H]1O[C@H](CO)[C@@H](O)[C@H](O)[C@H]1O)[C@H]1CC[C@]2(C)[C@@H]1[C@H](O)C[C@@H]1[C@@]3(C)CC[C@H](O)C(C)(C)[C@@H]3[C@@H](O[C@@H]3O[C@H](CO)[C@@H](O)[C@H](O)[C@H]3O)C[C@]12C [Rg1, Ginsenoside Rg1]
reported.value: 1.1884 wt %

Value of percentage by weight of marker in the receiving cell, Herbal Paste (Control) reported for the compound CC(C)=CCC[C@](C)(O[C@@H]1O[C@H](CO[C@@H]2O[C@H](CO)[C@@H](O)[C@H](O)[C@H]2O)[C@@H](O)[C@H](O)[C@H]1O)[C@H]1CC[C@]2(C)[C@@H]1[C@H](O)C[C@@H]1[C@@]3(C)CC[C@H](O[C@@H]4O[C@H](CO)[C@@H](O)[C@H](O)[C@H]4O[C@@H]4O[C@H](CO)[C@@H](O)[C@H](O)[C@H]4O)C(C)(C)[C@@H]3CC[C@]12C [Rb1, Ginsenoside Rb1] is 0.0167 wt %

The reported value for `Cc1cc(O)c2c(c1)C(=O)c1cc(O)cc(O)c1C2=O` in terms of percentage by weight of marker in the receiving cell, Herbal Paste (Control) is 0.0091 wt %
